Test system: CCRF-CEM leukemia
Assay: NCI-60 one-dose screen, 48 h (100 = growth as untreated, 0 = no growth, -100 = all killed)
Conditions: 10 µM unless noted
This is part of a sample that, as a whole, favours compounds with a hit. Of some 83,000 tested, about 20% had one in any assay. Calls of active or inactive are those of the source. Rule for the calls: active = growth percent below 10; inactive = the rest.
REPORTED_PROPERTY: growth

Field growth (entry `Nc1nc(Cl)cc(NCCCCNc2cc(Cl)nc(N)n2)n1` ) reads 84.5% (inactive)

Field growth (entry `CCN(CC)CCN1C(=O)c2c(c3c4ccccc4[nH]c3c3[nH]c4ccccc4c23)C1=O` ) reads 78.8% (inactive)

Field growth (entry `CNCCCOc1c(Br)cc(CCNC(=O)/C(Cc2ccc(OC)c(Br)c2)=N/O)cc1Br` ) reads 31.6% (inactive)

Field growth (entry `N#Cc1c(N)nc(Cl)c(C#N)c1C(=O)c1ccccc1` ) reads 10.2% (inactive)

Field growth (entry `C[C@]12CC[C@@H]3c4ccc(O)c(N)c4CC[C@H]3[C@@H]1CC[C@@H]2O` ) reads 75.9% (inactive)

Field growth (entry `O=C(Nc1ccc(-n2ccc3c(NC(=O)c4ccccc4)nccc32)cc1)c1ccc(Cl)c(C(F)(F)F)c1` ) reads -9.57% (active)

Field growth (entry `COc1ccc(-c2ccc(NC(=O)Nc3cccc(C(F)(F)F)c3)c(C)n2)cc1` ) reads 42.9% (inactive)

Field growth (entry `C=C1C(=O)O[C@H]2[C@H]1CC/C(COC(=O)n1ccnc1C)=C\CC[C@@]1(C)O[C@@H]21` ) reads 70.4% (inactive)

Field growth (entry `COc1ccc2c(c1)C(=O)/C(=C/c1ccc(OCC(=O)c3ccc(Cl)cc3)cc1)O2` ) reads 29% (inactive)

Field growth (entry `COc1ccc(/C=C/C(=O)/C=C(/C=C/c2ccc(OC)c(OC)c2OC)OB(F)F)c(OC)c1OC` ) reads -2.62% (active)

Field growth (entry Nc1ncnc2c1ncn2C1OC(COC(c2ccccc2)(c2ccccc2)c2ccccc2)C(O)C1O (centres undefined) ) reads 46.1% (inactive)

Field growth (entry `O=S(=O)(CCN1CCOCC1)Nc1cc(-c2ccc3ncnc(Nc4ccc(F)c(Cl)c4)c3c2)cnc1Cl` ) reads 14.5% (inactive)

Field growth (entry `O=C(CSc1nnc(-c2ccc(Cl)cc2)o1)Nc1ccc(C(=O)/C=C/c2ccccc2)cc1` ) reads 86.1% (inactive)

Field growth (entry `COC(=O)c1oc2c(C(=O)/C=C/c3ccc(OC)cc3)c(OCCN3CCOCC3)ccc2c1C` ) reads -38.4% (active)

Field growth (entry C=C(C)[C@@H]1C/C=C(\COC(=O)[C@H](OC(C)=O)C(NC(=O)c2ccccc2)c2ccccc2)CC[C@H]2O[C@]2(C)CC/C=C(\C)CC1 (some centres undefined) ) reads -89.5% [5 µM] (active)

Field growth (entry `O=C(Cn1c2ccccc2c2ccncc21)N/N=C\c1ccc2ccccc2c1` ) reads 50.4% (inactive)

Field growth (entry `COc1ccc(-n2c(-c3ccc(NC(=O)CCCl)cc3)nnc2-c2cc(OC)c(OC)c(OC)c2)cc1` ) reads 16.8% (inactive)

Field growth (entry `FC(F)(F)c1cn(CCN2CCOCC2)c2ncnc(Cl)c12` ) reads 12.3% (inactive)

Field growth (entry `Nc1n[nH]c2cccc(C#Cc3cccc(NC(=O)c4cccc(C(F)(F)F)c4)c3)c12` ) reads 28.8% (inactive)

Origin of values: PubChem BioAssay (NCI)
